- Test system: SK-OV-3 ovarian
- assay-procedure: NCI tumour cell line growth inhibition, 48 h
reported-endpoint: GI50

// GI50 lookup, key: CCN(CC)CCCNc1[nH]ncc2c(C)c3nc4ccccc4c3cc12 1.31 µM

Further cases:
// GI50 lookup, key: Cc1cn2c(/C=N/N=C(N)N)c(-c3ccsc3)nc2s1 10.6 µM

// GI50 lookup, key: CN1CCN(c2ccc(C(=O)Nc3cccc(C#Cc4cccc5[nH]nc(N)c45)c3)cc2C(F)(F)F)CC1 1.62 µM

// GI50 lookup, key: COc1ccc(Oc2cc(NCCC(F)(F)F)c3ncc(-c4ccc(C(=O)NC5CC5)c(C)c4)n3n2)c(F)c1F 0.399 µM

// GI50 lookup, key: CN(C)c1ccc(C(=C2C=CC(=[N+](C)C)C=C2)c2ccccc2Cl)cc1 0.314 µM

// GI50 lookup, key: CNCCCn1c2c(c3ccc(F)cc3c1=O)C(=O)c1cc(OC)cnc1-2 0.228 µM

// GI50 lookup, key: FC(F)(F)c1[nH]ncc1-c1nc2ccc3[nH]ncc3c2c2c1CCCC2 1.79 µM

// GI50 lookup, key: CN(C)c1ccc(/C=N/NC(=O)c2cccc3ccccc23)c(Cl)c1 1.67 µM

// GI50 lookup, key: CN(C)CCOc1ccc(-c2cc(-c3ccc4c(c3)CC/C4=N\O)c(-c3ccncc3)o2)cc1 4.08 µM

// GI50 lookup, key: COc1ccc2nccc(/C=C/c3ccnc4ccc(OC)cc34)c2c1 > 77 µM

// GI50 lookup, key: COc1ccc(/C(=N/O)c2cc(OC)c(OC)c(OC)c2)c(OC)c1N 8.51 µM

// GI50 lookup, key: CC(OC(=O)N(N(CCCl)S(C)(=O)=O)S(C)(=O)=O)c1ccc([N+](=O)[O-])cc1 (stereo unspecified) > 100 µM

// GI50 lookup, key: COc1cc(C2C3=C(COC3=O)Nc3cc4c(cc32)OCO4)cc2c1OCO2 (stereo unspecified) 0.0706 µM

// GI50 lookup, key: COC(=O)/C(=C\c1c(-c2ccccc2)[nH]c2ccccc12)S(C)(=O)=O 12.1 µM

// GI50 lookup, key: Cc1ncc(-c2ccnc(Nc3ccc(S(C)(=O)=O)cc3)n2)n1C(C)C 4.16 µM

// GI50 lookup, key: N=C(N)SCc1ccc([N+](=O)[O-])cc1[N+](=O)[O-] 20.8 µM
